FYI, the data here is from PubChem BioAssay (NCATS).

# Test details: Cell Viability - Jurkat (AID 426);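 further: potency means the concentration at half of the fitted maximal effect; cells exposed to compound for 40 hours at 37 °C before ATP read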
# Condition: qHTS
Results filed as inconclusive are left out. The source made the active and inactive calls.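 How the source made its calls: active means dose-dependent loss of cell ATP signal giving a full or clear fitted curve, ranked by lower potency value; inconclusive means weak partial curve or response only at the top dose; inactive means no loss of viability signal.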
Possible outcomes: 1 = active, 0 = inactive

Molecule | Assigned label
NC1=NC(S)C2N=CN=C2N1 (stereo not given) | 1
ClCCCl | 0
COc1cc(/C=C/c2ccccc2)oc(=O)c1 | 0
Nc1ccc(Cl)cc1Cl | 0
CCCCCCCCCCCCCC(=O)O | 0
CCCN(CCC)C(=O)SCC | 0
O=C(O)c1ccc(O)cc1O | 0
COc1c2ccoc2cc2oc(=O)ccc12 | 0
C/C=C\c1ccc(OC)cc1 | 0
CN(C)C=O | 0
COc1ccc(/C=C/c2cc(OC)cc(=O)o2)cc1 | 0
CCC(O)OC(O)CC (stereo not given) | 0
CC(C)=CCCC(C)CCO (stereo not given) | 0
O=C(O)c1ccccc1 | 0
CCCCCCCCO | 0
COC(=O)c1ccc(C)cc1 | 0
C=CC(=C)CCC=C(C)C | 0
CC1(C)CC(N=C=O)CC(C)(CN=C=O)C1 (stereo not given) | 0
CC12CCC(CC1=O)C2(C)C (stereo not given) | 0
O=S(=O)(O)c1ccccc1 | 0
COC(=O)CCCCC(=O)OC | 0
Cc1cccc([N+](=O)[O-])c1C | 0
Cc1ccc(N)c([N+](=O)[O-])c1 | 0
c1ccc2scnc2c1 | 0
O=C1CCc2ccccc2O1 | 0
c1ccc2c(c1)[nH]c1ccccc12 | 0
COC(=O)c1ccc(C=O)cc1 | 0
O=NO | 0
OCCNCCO | 0
C=Cc1ccccc1Cl | 0
Cc1c(N=C=O)cccc1N=C=O | 0
C=CCOC(=O)c1ccccc1C(=O)OCC=C | 0
CCO | 0
O=C(O)c1ccccc1C(c1ccc(O)cc1)c1ccc(O)cc1 | 0
CCO[Si](CCCN)(OCC)OCC | 0

###

# Test details: qHTS assay for small molecule activators of the nuclear factor-kappa B (NF-kB) signaling pathway (AID 651749); further: % of control where 0% means no effect
# Condition: NF-kB-bla ME-180 cells, beta-lactamase FRET ratio, 16 h; stronger effect = higher value
Inconclusive results are not listed. Activity calls are given as the source filed them. Calls come from the whole dose curve; as a rule, active = well fitted activation curve with a large enough effect in the signal ratio; inconclusive = small, poorly fitted or top-dose-only effect, or a change in a side signal; inactive = flat fitted curve, though single readings scatter; the % refers to the signal ratio.

Molecule | activation
O=S(=O)(O)c1ccccc1 | 0.223% (inactive)
C=C(C)C1CC=C(C)C(O)C1 (configuration not stated) | -0.16% (inactive)
CCC(O)OC(O)CC (configuration not stated) | 0.14% (inactive) [middle of 4 runs]
NC1=NC(S)C2N=CN=C2N1 (configuration not stated) | 0.298% (inactive)
C/C=C\c1ccc(OC)cc1 | -0.604% (inactive)
S=C1NC=NC2N=CNC12 (configuration not stated) | 1.89% (inactive)
c1ccccc1 | -0.601% (inactive) [middle of 4 runs]
COc1ccc(/C=C/c2cc(OC)cc(=O)o2)cc1 | 1.78% (inactive)
C1OCOCO1 | -1.91% (inactive)
CCO | -0.227% (inactive)
c1ccc2scnc2c1 | -1.1% (inactive)
C=CC(=C)CCC=C(C)C | -0.615% (inactive)

###

# Test details: AP1 Signaling Pathway (AID 357);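 further: ME-180 reporter cells stimulated with EGF at its EC50 level; on the % scale 0 is the no-effect control and ±100 the full control effect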
# Condition: ME-180 (cervical carcinoma) AP-1-bla reporter, EGF-induced, beta-lactamase ratio, 5 h; at 7.69 µM (top of the series) unless noted
# Method: NCGC Assay Overview: Activator protein-1 (AP-1), a transcription factor, plays an important role in tumor genesis by regulating genes involved in cell proliferation, differentiation, apoptosis, and angiogenesis. AP-1 activity is induced by a complex network of signaling pathways that involves extracellular signals, such as growth factors. […] Library compounds were measured for their ability to modulate positively or negatively the action of EC50 EGF on reporter gene activity. […]
Inconclusive results are not listed. The source made the active and inactive calls. Calls come from the whole dose curve; as a rule, active = well fitted curve in either direction with a large enough effect (not every such curve was filed as active); inconclusive = small, poorly fitted or top-dose-only effect, or another doubt; inactive = flat fitted curve, though single readings scatter.
activity change, negative = inhibition reference
Attribute measured: activity change, negative = inhibition

Input smiles | Obs value
Cc1cnc(CNc2ncnc3ccc(-c4ccccc4C)cc23)cn1 | -14.7% (inactive)
Cn1c(=O)c(-c2ccccc2)nc2cnc(N3CCOCC3)nc21 | -2.38% (inactive)
COC(=O)c1cc(Br)c(=O)n(Cc2ccc3c(c2)OCO3)c1 | -2.94% [at 17.2 µM] (inactive)
COc1ccc2[nH]cc(CCNc3ncncc3-c3ccccc3OC)c2c1 | -16.8% (inactive)
CN(C)c1ccc(-c2nccc(NCc3cccs3)n2)cc1 | -18.4% (inactive)
COc1ccc2[nH]cc(CCNc3ncncc3-c3ccc4c(c3)OCO4)c2c1 | -27.8% (inactive)
